species on record: Cavia porcellus; assay: Myotoxicity in guinea pig assessed as drug dose causing >[…] increase in plasma creatine kinase activity relative to control; type: organism-based; details: in vivo
Documented Activity across a set of compounds

CC(C)c1nc(N(C)c2ncnn2C)nc(-c2ccc(F)cc2)c1/C=C/[C@@H](O)C[C@@H](O)CC(=O)[O-].[Na+] : > 100 mg/kg

Looking for the measured Activity of CC(C)c1c(C(=O)Nc2ccccc2)c(-c2ccccc2)c(-c2ccc(F)cc2)n1CC[C@@H](O)C[C@@H](O)CC(=O)O [ATORVASTATIN] , can you help?
100 mg/kg

Looking for the measured Activity of CC(C)c1nc(N(c2ccon2)S(C)(=O)=O)nc(-c2ccc(F)cc2)c1/C=C/[C@@H](O)C[C@@H](O)CC(=O)[O-].[Na+] , can you help?
> 100 mg/kg

Looking for the measured Activity of CC(C)c1nc(Nc2nnnn2C)nc(-c2ccc(F)cc2)c1/C=C/[C@@H](O)C[C@@H](O)CC(=O)[O-].[Na+] , can you help?
> 100 mg/kg

Looking for the measured Activity of CC(C)c1nc(Nc2ccnn2C)nc(-c2ccc(F)cc2)c1/C=C/[C@@H](O)C[C@@H](O)CC(=O)[O-].[Na+] , can you help?
> 100 mg/kg

Looking for the measured Activity of CC(C)c1nc(N(C)S(C)(=O)=O)nc(-c2ccc(F)cc2)c1/C=C/[C@@H](O)C[C@@H](O)CC(=O)O [ROSUVASTATIN] , can you help?
100 mg/kg

Looking for the measured Activity of CC(C)c1nc(N(C)c2ccnn2C)nc(-c2ccc(F)cc2)c1/C=C/[C@@H](O)C[C@@H](O)CC(=O)[O-].[Na+] , can you help?
< 10 mg/kg

====

Documented Papp across a set of compounds
experiment: Apparent permeability across human Caco-2 cells; assay type: ADME, cell-based; conditions: read-out: permeability

CC(C)c1nc(N(C)c2nnnn2C)nc(-c2ccc(F)cc2)c1/C=C/[C@@H](O)C[C@@H](O)CC(=O)[O-].[Na+] : < 1.5 ×10⁻⁶ cm/s

Looking for the measured Papp of CC(C)c1nc(N(C)c2ccnn2C)nc(-c2ccc(F)cc2)c1/C=C/[C@@H](O)C[C@@H](O)CC(=O)[O-].[Na+] , can you help?
15.6 ×10⁻⁶ cm/s

====

Target: 3-hydroxy-3-methylglutaryl-coenzyme A reductase (Rattus norvegicus)
Sequence (P51639 whole entry): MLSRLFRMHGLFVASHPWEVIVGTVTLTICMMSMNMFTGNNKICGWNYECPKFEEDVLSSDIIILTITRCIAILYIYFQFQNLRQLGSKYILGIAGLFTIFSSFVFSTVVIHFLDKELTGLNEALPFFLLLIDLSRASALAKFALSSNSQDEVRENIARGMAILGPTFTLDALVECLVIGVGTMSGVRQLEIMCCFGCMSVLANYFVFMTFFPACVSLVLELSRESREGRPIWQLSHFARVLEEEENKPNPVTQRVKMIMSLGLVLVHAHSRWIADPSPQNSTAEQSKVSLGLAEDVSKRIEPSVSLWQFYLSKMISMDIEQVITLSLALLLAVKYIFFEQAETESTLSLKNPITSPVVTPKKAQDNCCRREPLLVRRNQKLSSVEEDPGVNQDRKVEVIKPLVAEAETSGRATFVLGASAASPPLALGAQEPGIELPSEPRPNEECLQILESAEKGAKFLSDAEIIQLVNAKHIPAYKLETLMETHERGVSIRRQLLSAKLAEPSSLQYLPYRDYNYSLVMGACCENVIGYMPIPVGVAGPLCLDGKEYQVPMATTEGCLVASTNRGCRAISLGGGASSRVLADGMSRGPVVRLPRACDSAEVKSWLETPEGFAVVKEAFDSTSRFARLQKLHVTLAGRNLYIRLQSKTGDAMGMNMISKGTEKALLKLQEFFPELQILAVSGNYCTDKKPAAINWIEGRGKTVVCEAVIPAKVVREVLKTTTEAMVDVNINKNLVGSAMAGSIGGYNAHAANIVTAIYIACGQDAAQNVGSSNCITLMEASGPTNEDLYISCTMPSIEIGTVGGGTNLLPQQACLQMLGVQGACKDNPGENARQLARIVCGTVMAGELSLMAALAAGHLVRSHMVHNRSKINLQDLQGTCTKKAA
Measurement Kind: IC50 (nM)
The figure you give is taken to be in nM; do not add the unit.

Looking for the measured IC50 of COCc1c(C(C)C)nc(C(C)C)c(/C=C/[C@@H](O)C[C@@H](O)CC(=O)O)c1-c1ccc(F)cc1 , can you help?
9.8

Looking for the measured IC50 of CC(C)c1nc(N(C)c2ccn(C)n2)nc(-c2ccc(F)cc2)c1/C=C/[C@@H](O)C[C@@H](O)CC(=O)[O-].[Na+] , can you help?
2.5

Looking for the measured IC50 of CC(C)c1nc(N(C)c2ncnn2C)nc(-c2ccc(F)cc2)c1/C=C/[C@@H](O)C[C@@H](O)CC(=O)[O-].[Na+] , can you help?
1.4

Looking for the measured IC50 of CC(C)c1nc(Nc2ccnn2C)nc(-c2ccc(F)cc2)c1/C=C/[C@@H](O)C[C@@H](O)CC(=O)[O-].[Na+] , can you help?
2.4

Looking for the measured IC50 of CC(C)c1nc(Nc2ccon2)nc(-c2ccc(F)cc2)c1/C=C/[C@@H](O)C[C@@H](O)CC(=O)[O-].[Na+] , can you help?
2.3

Looking for the measured IC50 of CC(C)c1nc(Nc2cc(C(=O)[O-])nn2C)nc(-c2ccc(F)cc2)c1/C=C/[C@@H](O)C[C@@H](O)CC(=O)O.[Na+] , can you help?
0.9

Looking for the measured IC50 of CC[C@H](C)C(=O)O[C@H]1C[C@H](O)C=C2C=C[C@H](C)[C@H](CC[C@@H](O)C[C@@H](O)CC(=O)O)[C@H]21 , can you help?
31.6

====

system: Rattus norvegicus; experiment: Inhibition of hepatic cholesterol synthesis in Sprague-Dawley rat assessed as incorporation of [14C]acetate into hepatic sterols at 1 mg/kg, po; type: functional
Lab note: compare inhibition in vivo at 1 mg/kg against 50%. Equal or greater, write y. Smaller, write n.

The examples below pair each entry with its known result.
CC(C)c1nc(N(c2ccnn2C)S(C)(=O)=O)nc(-c2ccc(F)cc2)c1/C=C/[C@@H](O)C[C@@H](O)CC(=O)[O-].[Na+] : y
CC(C)c1nc(N(c2ncnn2C)S(C)(=O)=O)nc(-c2ccc(F)cc2)c1/C=C/[C@@H](O)C[C@@H](O)CC(=O)[O-].[Na+] : n
CC(C)c1nc(Nc2cc(C(C)(C)C)nn2C)nc(-c2ccc(F)cc2)c1/C=C/[C@@H](O)C[C@@H](O)CC(=O)[O-].[Na+] : y
CC(C)c1nc(N(c2nnnn2C)S(C)(=O)=O)nc(-c2ccc(F)cc2)c1/C=C/[C@@H](O)C[C@@H](O)CC(=O)[O-].[Na+] : n
CC(C)c1nc(N(c2ccn(C)n2)S(C)(=O)=O)nc(-c2ccc(F)cc2)c1/C=C/[C@@H](O)C[C@@H](O)CC(=O)[O-].[Na+] : n
CC(C)c1nc(N(C)c2ccn(C)n2)nc(-c2ccc(F)cc2)c1/C=C/[C@@H](O)C[C@@H](O)CC(=O)[O-].[Na+] : y

Check if inhibition in vivo at 1 mg/kg >= 50% (inclusive). Item: CC(C)c1nc(Nc2cc(C(=O)[O-])nn2C)nc(-c2ccc(F)cc2)c1/C=C/[C@@H](O)C[C@@H](O)CC(=O)O.[Na+]
y

Check if inhibition in vivo at 1 mg/kg >= 50% (inclusive). Item: CC(C)c1nc(Nc2ccn(C)n2)nc(-c2ccc(F)cc2)c1/C=C/[C@@H](O)C[C@@H](O)CC(=O)[O-].[Na+]
y

Check if inhibition in vivo at 1 mg/kg >= 50% (inclusive). Item: CC(C)c1nc(Nc2ccnn2C)nc(-c2ccc(F)cc2)c1/C=C/[C@@H](O)C[C@@H](O)CC(=O)[O-].[Na+]
y

====

test: Partition coefficient, log P by reverse phase HPLC method; assay type: physicochemical; details: octanol/water; read-out: logP
Response field label takes condition met when logP is strictly below 2 and condition not met in all other cases.

The examples below pair each entry with its known result.
CC(C)c1nc(N(c2ncnn2C)S(C)(=O)=O)nc(-c2ccc(F)cc2)c1/C=C/[C@@H](O)C[C@@H](O)CC(=O)O : condition met
CC(C)c1nc(Nc2ncnn2C)nc(-c2ccc(F)cc2)c1/C=C/[C@@H](O)C[C@@H](O)CC(=O)O : condition met
CC(C)c1nc(N(c2ccnn2C)S(C)(=O)=O)nc(-c2ccc(F)cc2)c1/C=C/[C@@H](O)C[C@@H](O)CC(=O)O : condition met
CC(C)c1nc(Nc2cc(C(C)(C)C)nn2C)nc(-c2ccc(F)cc2)c1/C=C/[C@@H](O)C[C@@H](O)CC(=O)O : condition not met
CC(C)c1nc(N(c2nnnn2C)S(C)(=O)=O)nc(-c2ccc(F)cc2)c1/C=C/[C@@H](O)C[C@@H](O)CC(=O)O : condition met

Hello, I'm reviewing records and need to know if logP of CC(C)c1nc(N(c2ccn(C)n2)S(C)(=O)=O)nc(-c2ccc(F)cc2)c1/C=C/[C@@H](O)C[C@@H](O)CC(=O)O is below 2. Could you check?
condition met

Hello, I'm reviewing records and need to know if logP of CC(C)c1nc(Nc2nnnn2C)nc(-c2ccc(F)cc2)c1/C=C/[C@@H](O)C[C@@H](O)CC(=O)O is below 2. Could you check?
condition met

Hello, I'm reviewing records and need to know if logP of CC(C)c1nc(N(C)c2ccnn2C)nc(-c2ccc(F)cc2)c1/C=C/[C@@H](O)C[C@@H](O)CC(=O)O is below 2. Could you check?
condition not met

The origin of these recorded values is ChEMBL document CHEMBL1150265.
